testedOn: hα7-wt nAChR (Homo sapiens)
Sequence (P36544 23-502): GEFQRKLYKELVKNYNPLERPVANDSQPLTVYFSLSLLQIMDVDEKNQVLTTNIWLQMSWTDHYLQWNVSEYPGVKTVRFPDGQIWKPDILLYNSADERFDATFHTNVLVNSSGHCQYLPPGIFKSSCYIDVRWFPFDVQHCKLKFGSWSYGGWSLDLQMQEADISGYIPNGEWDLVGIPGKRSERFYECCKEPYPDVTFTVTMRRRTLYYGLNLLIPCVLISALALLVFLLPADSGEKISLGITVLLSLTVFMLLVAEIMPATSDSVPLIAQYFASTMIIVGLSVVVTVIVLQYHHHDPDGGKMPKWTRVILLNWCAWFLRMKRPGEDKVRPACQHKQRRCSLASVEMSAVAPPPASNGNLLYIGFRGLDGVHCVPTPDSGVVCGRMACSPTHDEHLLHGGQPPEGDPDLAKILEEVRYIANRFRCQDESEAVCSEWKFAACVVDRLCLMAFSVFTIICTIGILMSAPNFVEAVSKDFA
experimentSummary: Ca2+ flux imaging (FDSS) (Protocol B), potentiation of the choline response
cond: Ca2+ assay as described in D.1; "<5" = activity did not reach a top plateau at maximal concentration
Entries and their measured EC50 follow.
Kindly provide the numeric value in nM only, without the unit symbol.

1) Cc1cc(-c2cc(Nc3cccc(Cl)c3F)nn2CCC(=O)N(C)C)cc(C)n1 [compound 173] : 135
2) CNC(=O)Cn1nc(Nc2cccc(F)c2)cc1-c1ccc2c(c1)OCCO2 [compound 72] : 646
3) CNC(=O)Cn1nc(Nc2cccc(OC(F)(F)F)c2)cc1-c1cccnc1 [compound 14] : 5130

Q: Return value of EC50 for input Cc1cc(-c2cc(Nc3cc(F)c(F)c(F)c3)nn2C[C@H](C)O)ccn1 [compound 44] , no commentary.
Ans: 1230

Q: Return value of EC50 for input COc1cc(Nc2cc(-c3cc(C)nc(C)c3)n(CC(=O)NC3CCC3)n2)cc(C(F)(F)F)c1 [compound 162] , no commentary.
Ans: 437

----------
testedOn: hα7-wt nAChR (Homo sapiens)
experimentSummary: Ca2+ flux imaging (FDSS) (Protocol B), potentiation of the choline response
cond: Ca2+ assay as described in D.1; "<5" = activity did not reach a top plateau at maximal concentration
observable: EC50 (nM)
Kindly provide the numeric value in nM only, without the unit symbol.

1) Cc1ccnc(-c2cc(Nc3ccc(F)c(F)c3)nn2CCC(=O)N(C)C)c1 : 2450
2) CNC(=O)Cn1nc(Nc2cc(F)cc(Cl)c2)cc1-c1ccnc(C)c1 : 1780
3) CCNc1cc(-c2cc(Nc3ccc(F)c(F)c3F)nn2C[C@H](C)O)ccn1 : 776
4) CCNC(=O)Cn1nc(Nc2ccc3c(c2)OC(F)(F)O3)cc1-c1ccncc1 : 871
5) CNC(=O)Cn1nc(Nc2ccc(F)c(F)c2)cc1-c1cc(C)nc(C)c1 : 1700
6) CNC(=O)Cn1nc(Nc2ccc(F)cc2)cc1-c1ccc2c(c1)OCCO2 : 437
7) CC[C@H](O)Cn1nc(Nc2cccc(Cl)c2)cc1-c1cc(C)nc(C)c1 : 759
8) CNC(=O)Cn1nc(Nc2ccc3c(c2)OC(F)(F)O3)cc1-c1ccnc(C)c1 : 1860
9) Cc1cc(-c2cc(Nc3ccc(F)c(F)c3F)nn2CC(=O)NC2CC2)cc(C)n1 : 380
10) Cc1ccnc(-c2cc(Nc3ccc(F)c(F)c3)nn2C[C@H](C)O)c1 : 2140

Q: Return value of EC50 for input `Cc1ccnc(-c2cc(Nc3ccc(F)c(C(F)(F)F)c3)nn2C[C@H](C)O)c1` , no commentary.
Ans: 933

Q: Return value of EC50 for input `CN(C)C(=O)CCn1nc(Nc2ccc(F)c(F)c2)cc1-c1ccc2c(c1)OCCO2` , no commentary.
Ans: 51.3

Q: Return value of EC50 for input `CCNC(=O)Cn1nc(Nc2cccc(OC(F)(F)F)c2)cc1-c1cc(C)nc(C)c1` , no commentary.
Ans: 646

Q: Return value of EC50 for input `CC[C@H](O)Cn1nc(Nc2cccc(Cl)c2F)cc1-c1ccnc(C)c1` , no commentary.
Ans: 1170

Q: Return value of EC50 for input `CCNC(=O)Cn1nc(Nc2ccc(F)c(F)c2F)cc1-c1cc(C)nc(C)c1` , no commentary.
Ans: 468

Q: Return value of EC50 for input `COc1cc(Nc2cc(-c3ccnc(C)c3C)n(CCC(=O)N(C)C)n2)cc(C(F)(F)F)c1` , no commentary.
Ans: 912

Q: Return value of EC50 for input `CCNC(=O)Cn1nc(Nc2ccc3c(c2)OC(F)(F)O3)cc1-c1cc(C)nc(C)c1` , no commentary.
Ans: 417

Q: Return value of EC50 for input `Cc1cc(-c2cc(Nc3ccc(F)c(C(F)(F)F)c3)nn2C[C@H](C)O)ccn1` , no commentary.
Ans: 1450

Q: Return value of EC50 for input `CNC(=O)Cn1nc(Nc2ccc(F)c(C(F)(F)F)c2)cc1-c1ccc2c(c1)OCCO2` , no commentary.
Ans: 219

Entry source: patent US8779158B2
